- Test system: UACC-62
- EXPERIMENT NOTES: NCI tumour cell line growth inhibition, 48 h
Active and inactive are the calls of the source. Rule as the data show it: active = GI50 up to about 1.1 µM and inactive = higher.
Use one of these outcomes when replying: active, inactive

Name the outcome recorded for O=C(NCCCCCCNC(=O)OCCSCCn1cc(C(=O)NC(=O)OCc2ccccc2)c(=O)[nH]c1=O)OCCSCCn1cc(C(=O)NC(=O)OCc2ccccc2)c(=O)[nH]c1=O in the assay. inactive

Name the outcome recorded for O=C(O)CCC(=O)Oc1ccc(O)c2c1CCCC2=O in the assay. inactive

Name the outcome recorded for CC(C)=CC1CC(C)C2(CCC3(C)CC4C(C(=O)CC4(C)O)/C(C=O)=C\CC32)O1 (centres undefined) in the assay. active

Name the outcome recorded for CCOP(=O)(OCC)/C(C#N)=C/c1cccn1CC(C)C in the assay. inactive

Name the outcome recorded for O=C(CNc1nccs1)Nn1cnc2ccc(S(=O)(=O)Nc3nccs3)cc2c1=O in the assay. inactive

Name the outcome recorded for O=C1/C(=C/c2cc(O)c(O)c(O)c2)Oc2cc(O)cc(OC3OC(CO)C(O)C(O)C3O)c21 (centres undefined) in the assay. inactive

Name the outcome recorded for NC(Cc1ccccc1)C(=O)OCN1C(=O)C2C3C=CC(C2C1=O)C1C(=O)N(COC(=O)C(N)Cc2ccccc2)C(=O)C31 (centres undefined) in the assay. inactive

Name the outcome recorded for COc1ccc2cc3[n+](cc2c1OC)CCc1cc(O)c(O)cc1-3 in the assay. inactive

Name the outcome recorded for COC(=O)c1cc(NC(=O)Cc2c[nH]c3ccccc23)cn1C in the assay. inactive

----------
- Tested on: 786-0
- EXPERIMENT NOTES: NCI tumour cell line growth inhibition, 48 h
Activity calls are given as the source filed them. Rule as the data show it: active = GI50 up to about 1.1 µM and inactive = higher.
Use one of these outcomes when replying: active, inactive

Below are worked cases with known answers.
CO[C@@H]1C[C@H](OC(N)=O)[C@@H]2C=C[C@@H]3/C=C(C)/C=C/[C@@H](C)[C@H]([C@H](C)[C@H](O)[C@@H](C)NC(C)=O)OC(=O)/C=C/C=C(C)\C=C\[C@]3(C)[C@@H]2C1 = active
CCOC(=O)CC(C)C1(C=O)CCCCC1=O (centres undefined) = inactive
Cc1ccc2c(c1)CNc1ccc(C)cc1CN2 = inactive
COC(=O)C(CCC1C=CN(S(=O)(=O)c2ccc(C)cc2)C1)/N=C/c1ccccc1 (centres undefined) = inactive
N#C/C(=C1\N=NC(N)=C(c2ccc(Cl)cc2)C1=O)c1ccc(Cl)cc1 = inactive

Name the outcome recorded for CC1=CC(=O)N(n2c(-c3ccccc3)n[nH]c2=O)C1=O in the assay. inactive

Name the outcome recorded for CCCCCCCCCCCCCCCCCCN(C)C(COC)COP(=O)([O-])OCC[N+](C)(C)C (centres undefined) in the assay. inactive

Name the outcome recorded for C=CCc1cc(-c2cc(CC=C)c(O)c(CNCCCl)c2)cc(CNCCCl)c1O in the assay. inactive

Name the outcome recorded for CN(C)CCCNC(=O)CNC(=O)c1cc(NC(=O)c2cc(NC(=O)c3cc(NC(=O)CCNC(=O)c4cc(NC(=O)c5cc(NC(=O)c6nccn6C)cn5C)cn4C)cn3C)cn2C)cn1C in the assay. inactive

Name the outcome recorded for CC(=O)c1cc2c(s1)C(=O)c1ccsc1C2=O in the assay. inactive

Name the outcome recorded for COc1ccc(N2C(=O)C3c4[nH]c5cccc(Cl)c5c4C4CCC(C(C)(C)C)CC4C3C2=O)cc1 (centres undefined) in the assay. inactive

Name the outcome recorded for CC12CC1C(c1cccc([N+](=O)[O-])c1)(c1cccc([N+](=O)[O-])c1)N=N2 (centres undefined) in the assay. inactive

Name the outcome recorded for Nc1ccc(C(=O)CC2(O)C(=O)Nc3ccccc32)cc1 (centres undefined) in the assay. inactive

Name the outcome recorded for Cc1ccc(-n2nncc2[Si](C)(C)C)s1 in the assay. inactive

Name the outcome recorded for COc1ccc2c(ccc3c(C(=O)NCCN(C)CCNC(=O)c4cn(C)c5c4ccc4cc(OC)ccc45)cn(C)c32)c1 in the assay. inactive

Name the outcome recorded for CCOc1ccc(NC(=O)c2c(N/N=C/c3ccc(OC)cc3)nc(=O)[nH]c2C)cc1 in the assay. inactive

Name the outcome recorded for Fc1cccc(Cl)c1/C=N\N=C1c2ccccc2-c2ccccc21 in the assay. inactive

Name the outcome recorded for O=C(O)COc1cccc2ccccc(=O)c12 in the assay. inactive

Name the outcome recorded for CSC12c3cc(C)n(-c4ccc(I)cc4)c3CC(C)(C)CN1C(=O)C2Oc1ccccc1 (centres undefined) in the assay. inactive

----------
- System: OVCAR-8
- EXPERIMENT NOTES: NCI tumour cell line growth inhibition, 48 h
The source made the active and inactive calls. Cut-off read from the data, not from the text of the source: active = GI50 up to about 1.1 µM and inactive = higher.
QUANTITY KIND: GI50

Example entries begin here.
O=C(CCc1nnc2s/c(=C\c3ccc(Cl)c(Cl)c3)c(=O)n12)Nc1ccc(Cl)c(Cl)c1 = 20.4 µM (inactive)
C/C(=N\NC(N)=S)c1ccc(C2CCCCC2)cc1 = 15 µM (inactive)
COC(=O)C(Cc1ccc2c(c1)CCC2)Cc1ccc2c(c1)CCC2 = 53.6 µM (inactive)
N=C/N=C/C(=S)O[C@@H]1C(=O)N2CCC[C@@]23CCCC[C@@H]13 = > 12.5 µM (inactive)
CC1C2(C)OC(=N)C(C#N)(C(c3ccco3)O2)C1(C#N)C#N (stereo unspecified) = 39.9 µM (inactive)

Recorded GI50 for Cc1ccc(C2=C(Cl)C(=O)C(c3ccc(C)cc3)=C(Cl)C2=O)cc1 with OVCAR-8, please? > 100 µM (inactive)

Recorded GI50 for COS(C)(=O)=O with OVCAR-8, please? > 2 µM (inactive)

----------
- System: DMS-273
- EXPERIMENT NOTES: NCI tumour cell line growth inhibition, 48 h
Activity calls are given as the source filed them. No stated cut-off is given here; in the data, active = GI50 up to about 1.1 µM and inactive = higher.
QUANTITY KIND: GI50

State the recorded GI50 for this entry: COc1ccccc1NC(=O)CC(=O)n1nc(C)c(/N=N/c2ccccc2Cl)c1C > 100 µM (inactive)

State the recorded GI50 for this entry: COCCOCOC(C)(C)[C@H](CCOC(C)=O)O[Si](c1ccccc1)(c1ccccc1)C(C)(C)C 5.3 µM (inactive)

State the recorded GI50 for this entry: Cc1cccc(NC(=O)/C(=N\N)C(c2cnc3ccc([N+](=O)[O-])cc3n2)[N+](=O)[O-])c1C (stereo unspecified) > 100 µM (inactive)

State the recorded GI50 for this entry: CC[C@@H]1OC2(C)CC(S(=O)(=O)c3ccccc3O)CC1O2 (stereo partly specified) > 100 µM (inactive)

State the recorded GI50 for this entry: NC1=NN(c2ccccc2)C(=O)C1/C(=N\NC(=O)c1cc2ccccc2cc1O)C(=O)Nc1nc([N+](=O)[O-])cs1 (stereo unspecified) > 45.2 µM (inactive)

State the recorded GI50 for this entry: COC(=O)C1C(=O)NC2(C)CC1c1ccccc1O2 (stereo unspecified) > 100 µM (inactive)

----------
- Test system: CCRF-CEM
- EXPERIMENT NOTES: NCI tumour cell line growth inhibition, 48 h
Calls of active or inactive are those of the source. No stated cut-off is given here; in the data, active = GI50 up to about 1.1 µM and inactive = higher.
QUANTITY KIND: GI50

Cc1cccc2[s+]snc12 = 23.9 µM (inactive)
Cc1cc(OC2OC(CO)C(O)C(O)C2O)ccc1O (configuration not stated) = > 100 µM (inactive)
COc1ccccc1-c1nc(-c2ccccc2O)n[nH]1 = > 100 µM (inactive)

State the recorded GI50 for this entry: CC(C)=CCC/C(C)=C\CC/C(C)=C/CO 19.5 µM (inactive)

State the recorded GI50 for this entry: CS(=O)(=O)N(CC(=O)O)Cc1ccccc1 > 100 µM (inactive)

State the recorded GI50 for this entry: Cc1ccc2c(c1)CNc1ccc(C)cc1CN2 > 100 µM (inactive)

State the recorded GI50 for this entry: CCCc1cc(OC(=O)c2c(O)cc(OC)cc2CCC)cc(O)c1C(=O)O 32.8 µM (inactive)

----------
Below, each entry is listed alongside its reported GI50.
- System: K562
- EXPERIMENT NOTES: NCI tumour cell line growth inhibition, 48 h
Activity calls are given as the source filed them. Rule as the data show it: active = GI50 up to about 1.1 µM and inactive = higher.

O=C1/C(=C/c2cc(O)c(O)c(O)c2)Oc2cc(O)cc(OC3OC(CO)C(O)C(O)C3O)c21 (stereo not given) = 16.9 µM (inactive)
CNC1=C/C(=N/C2=CC(=N/C(=C\C#N)C(C)(C)O)/OC2(C)C)OC1(C)C = 3.12 µM (inactive)
CC1(C)[N+]([O-])=[N+]([O-])C1(C)O (stereo not given) = > 100 µM (inactive)
Cc1nc2c3c(ccc2nc1O)C(=O)c1ccccc1C3=O = > 100 µM (inactive)

Now, please, on to the next compound.
Recorded GI50 for CC(=O)Oc1c2c(c3n(c1=O)CCCC3)C(=O)N(c1ccccc1)C2=O with K562, please? > 100 µM (inactive)

----------
- Test system: SF-539
- EXPERIMENT NOTES: NCI tumour cell line growth inhibition, 48 h
Activity calls are given as the source filed them. No stated cut-off is given here; in the data, active = GI50 up to about 1.1 µM and inactive = higher. Square brackets hold non-standard residues; d marks the D form. Peptide text beside a SMILES is read from it. * marks the point of attachment. Phe(4-NO2) = N[CH](Cc1ccc([N+](=O)[O-])cc1)C(=O)O; Cbz = O=C(OCc1ccccc1)*
Below, each entry is listed alongside its reported GI50.

CCOC(=O)CCC(NC(=O)OCc1ccccc1)C(=O)NC(CCC(=O)OCC)C(=O)NC(CCC(=O)OCC)C(=O)NC(CCC(=O)OCC)C(=O)NC(CCC(=O)OCC)C(=O)NC(Cc1ccc([N+](=O)[O-])cc1)C(=O)NC(CCC(=O)OCC)C(=O)NC(CCC(=O)OCC)C(=O)NC(CCC(=O)OCC)C(=O)NC(CCC(=O)OCC)C(=O)NC(CCC(=O)OCC)C(=O)OCC (configuration not stated) (Cbz-E(OEt)E(OEt)E(OEt)E(OEt)E(OEt)[Phe(4-NO2)]E(OEt)E(OEt)E(OEt)E(OEt)E(OEt)-OEt; configuration not given here) = > 50 µM (inactive)

Now, please, on to the next compound.
State the recorded GI50 for this entry: CC(=O)Oc1c2c(c3n(c1=O)CCCC3)C(=O)N(c1ccccc1)C2=O > 100 µM (inactive)
